test.protocol: soluble on expression in E. coli; label from the status in PepcDB or PDB records
reported.property: soluble on expression in E. coli

Solved entries:
>>> result_value("DEEDANFMQRAFEMNDKVASDVMVDRTSMSVVDVDETIADALLLYLEEQYSRFPVTADNDKDKIIGYAYNYDIVRQARIDDKAKISTIMRDIVSVPENMKVPDVMEEMSAHRVPMAIVIDEYGGTSGIITDKDVYEELFGNLRDEQDDED")
"soluble"
>>> result_value("SLVTLGEGFEKARLTRFLEKFGGNEGSQFLYLKDYGHFYYQEEGEDQVLFGFQMKFNKCFVLADPIGQREKWTAATLAFMDQADLLGYQLVFYRISEEYVMNLHDCGFEFMKVGEEGLIQFDEPSTVNQTAWTETVTEKIAAEAADFQFEFYPETISDALYQELERVSADWSRNQKERYFIGGRLDPEYLKCSSVGLVRQKQTVIGFITGKEMEKGKSISYDLLRIRSDAPAFTREYLFTHFIETYQQQGYQLIDIGMAPLANVGESKYSFLKERFVNIFYKYSYQIYAFQDTRKRKEQYVTSWQPRYFAYPKRTSVLFAFVQLSLLITKGRHQSVSLVEEAMTEI")
"not soluble"
>>> result_value("MCGRFTLTVDLLALQDRFHFRYQGSLTPRFNIAPGQDVLTIVAEGGERVGKMMRWGLVPFWAKDARIGAKMINARAETVDEKASFRHAFKRRRCLILADGFFEWKKEGTKKVPYRFTLKTGEPFAFAGLWERWEGASDPIETCTIMTTKANELIAPIHDRMPVMLPYERHDDWLDPRLDDSEYLKSLLSPYPSGEMRMYEVAPLVNSPKNDVIACIEPVDSRSMEGT")
"not soluble"
>>> result_value("MTPVQLKNYLEQLVGNQIKTSTMIWGPPGIGKSSIVAQIAEEGKLRFIDLRLSQLAPTDLRGLPVAIPTSKTKPQTGTSAWYPPEFLPKDGAGILFLDELNMAPPAMQGVAQQLILDRRVGSYEVPTDWFIWAAGNRKEDRASVFEMPAPLANRFLHLDVQPDFESFKQYALEQKYHEQVIAFLSFRPGLIHKLDLQRPAWPSPRSWAIANGLHQVNLDVSPAVGEGCAAEFSAFVQLYKDLPDLEAIFRGQGQNIGFPTEPSSGYASTIGLAVRAKDATAGVNAFHWLTDKADSEWVQLFVTDMAGQLRRAGHLGALSIMAKKEPKLKQFMQGYQELLAILEHHHHHH")
"soluble"
>>> result_value("MSININRQNMHKMLQYKRRCIMYINTGYLNHSHKDFKDKSRPLIVGSCGTYRLSQHPKMPTYRPRGRLDYQIIYISSGLVHFHFDNPENETIIPAGHIVLFRPKELQKYEFYGKDKTQIYWLHFTGSDVKNTLRKYGFTDNKRVFNVGTSLEYEQVFKRIITELQRCQDNYEEMLMLLLRHLLIIFNRKITTEHVIRNEFLDSQMDTAITYFNTNYNRSINVEEYASSIGMSISWFIRSFRKYTGNTPVQFLTALRMTNAQVLLETTSYSINEIAGIVGYNNPLYFSRLFHKQKGCSPSEYRARNT")
"not soluble"

Now for a further sequence.
Task: So what's the measured soluble on expression in E. coli for this one? MSLRNPIRIFIVDDHEIVRQGLKVIINQEQDFELVGESNGQKGLLKEIAEAHPDVLLLDIRISGSDGFDIASQLNEKFPSIKILIISGYESELYLVEALDHKVSGFIPKGSSRDYVCSAIRMVALGGTVWHGELLYRVIRGLSRLGNEPNDTKVQIGKSHLKPRELKVLSLLAKGKLNKEICFELQISMDTVKKDIHQLKSKYGVFNRTQLATIATEMQLKEGHHHHHH
Output: not soluble

---

test.protocol: soluble on expression in E. coli; label from the status in PepcDB or PDB records
reported.property: soluble on expression in E. coli

>>> result_value("MMLVRSVFRSQLRPSVSGGLQSASCYSSLSAASAEAERTIREGPRNDWSRDEIKSVYDSPLLDLLFHGAQVHRHVHNFREVQQCTLLSIKTGGCSEDCSYCPQSSRYSTGVKAQRLMSKDAVIDAAKKAKEAGSTRFCMGAAWRDTIGRKTNFSQILEYIKEIRGMGMEVCCTLGMIEKQQALELKKAGLTAYNHNLDTSREYYPNVITTRSYDDRLETLSHVRDAGINVCSGGIIGLGEAEEDRIGLLHTLATLPSHPESVPINALLAVKGTPLEDQKPVEIWEMIRMIGTARIVMPKAMVRLSAGRVRFSMSEQALCFLAGANSIFTGEKLLTTPNNDFDADQLMFKTLGLIPKPPSFSEDDSESENCEKVASASH")
"not soluble"
>>> result_value("MRALREKTSMSQGVEFNRLMLDMRAMQMDAMSAPKPVSGAQEAGASSFADMLGQAVNKVAQTQQASSQLANAFEVGKSGIDLTDVMISSQKASVSFQALTQVRNKLVQAYQDIMQMPV")
"not soluble"
>>> result_value("MGSDKIHHHHHHMAVQFELYKTPMPKEKKNKTRYHARPVSFETVNTEKLAYRIHDRSTLRVSDIISTLEELKNEVAQCLLEGKKVHVDGLGFFQVTLSCEEEIRNPKDKRVHRVKLKAIKFKADKELKGELCHMKFQRSKIRPHSANLSEVEIDMKLTEYFAENQIITRKDFQYLCGMTQITAYRHIKRLMAEKKLQNKGTIYQPIYTPVPGNYRVSVDLKYKEQ")
"not soluble"

---

test.protocol: soluble on expression in E. coli; label from the status in PepcDB or PDB records
reported.property: soluble on expression in E. coli

>>> result_value("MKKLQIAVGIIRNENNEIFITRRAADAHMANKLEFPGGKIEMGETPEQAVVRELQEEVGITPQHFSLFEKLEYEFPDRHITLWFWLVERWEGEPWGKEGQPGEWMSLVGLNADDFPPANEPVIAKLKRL")
"soluble"
>>> result_value("MNIGKPRKLGKTIEDIEEGDSLSLTESIEDKDLLLYLGLTNDANPLYIQHDYAQKTEYEKPIVPSIMLMGIITSAISKHLPGPGSHVVNFSVNFVEPVFHYETLTFQLEVIKVDKMKDVITISVEAVNEQENRVLDAVVMVQPPQVTIDELTEKEGTLTYE")
"soluble"
>>> result_value("SFVKDFKPQALGDTNLFKPIKIGNNELLHRAVIPPLTRMRALHPGNIPNRDWAVEYYTQRAQRPGTMIITEGAFISPQAGGYDNAPGVWSEEQMVEWTKIFNAIHEKKSFVWVQLWVLGWAAFPDNLARDGLRYDSASDNVFMDAEQEAKAKKANNPQHSLTKDEIKQYIKEYVQAAKNSIAAGADGVEINSANGYLLNQFLDPHSNTRTDEYGGSIENRARFTLEVVDALVEAIGHEKVGLRLSPYGVFNSMSGGAETGIVAQYAYVAGELEKRAKAGKRLAFVHLVEPRVTNPFLTEGEGEYEGGSNDFVYSIWKGPVIRAGNFALHPEVVREEVKDKRTLIGYGRFFISNPDLVDRLEKGLPLNKYDRDTFYQMSAHGYIDYPTYEEALKLGWDKS")
"soluble"

---

test.protocol: soluble on expression in E. coli; label from the status in PepcDB or PDB records
reported.property: soluble on expression in E. coli

>>> result_value("MATQTAVTATTVPQGSPSVTGSASQGGILNSARQFFSLAAPKVEKDKEFSFRFLTSPLRSKPAATVNADNFYMYACGSINMP")
"not soluble"
>>> result_value("GMASSGTEHDAMRARLVDVAQAIVEERGGAGLTLSELAARAGISQANLSRYFETREDLMEAIADYWFHPMVEIMEDVLASDLPPRRKMYEFFARRFVVMRRKWEADPVKLQTYIEVGNDYFEQVRSYIDLADHYLGEIIGEAMSDGAFSGLEVDETISLVNQMCAPYCALNTMTTFMERLSEDKLARIVDAVFDGLSAQDRGARSLTGLRAA")
"soluble"
>>> result_value("MEALRASYGDSSSDSDTDDLSPASPVTANSGEKDSISLPPPPLALLDSIVSTGSLDFFSTEPGVRVRNFPHVDGNYALHVYVPVCIPPLPKKEIVCFLKKVASVVPHLHLVEADVPLSILCKDDQKFERALGREFHISLGRNVPLRVHQINSVISMLRQKLQLQKRYLIDFNKWEVFVNDDHTRSFLSLEITTSGLSEISKQIDAVNEVYKLHNLPEFYKDPRPHISLVWALGDIRTSLKGAVDVELRKLRAGGCVQNRIFTSKFCGIECKIGNKTHKICKLPDE")
"soluble"
>>> result_value("GAGNYQLAVSTLAKVWKQLHIPDVYDVGAMYFIKTFLHFGVSLLSAGHAWTNPQSFLDNAPLRQTLGKMMPFDGIEPSIASGALQALALTASCYTTGMSVTFFQGEESLGEWTRYQRLGVRERIGLDHLMATAAIPLIFPSVRIGEKFYCDGAVRQLSPLSPALH")
"not soluble"
